Source of measurements: PubChem BioAssay (NCATS)

# assay summary: AP1 Signaling Pathway (AID 357);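 further: ME-180 reporter cells stimulated with EGF at its EC50 level; on the % scale 0 is the no-effect control and ±100 the full control effect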
# condition summary: ME-180 (cervical carcinoma) AP-1-bla reporter, EGF-induced, beta-lactamase ratio, 5 h; at 7.69 µM (top of the series) unless noted
Records with an inconclusive call do not appear.
Cut-off -10% on activity change, negative = inhibition, inclusive. At or above means 1.0; below means 0.0.

structure_smiles=N#Cc1cccc(NC(=O)N2CCC3(CC2)CCN(C(=O)c2ccco2)CC3)c1 answer_label=1.0
structure_smiles=COCCn1c(=O)c(-c2cn(C)c3ccccc23)nc2cnc(N3CCNCC3)nc21 answer_label=1.0
structure_smiles=CN(C)c1ccc(-c2ccc3ncnc(N4CCNCC4)c3c2)cc1 answer_label=1.0

activity change, negative = inhibition >= -10% for "COC(=O)N1CCC2(CCN(Cc3nccs3)CC2)CC1" ?
0.0

Please check the record "Fc1ccc(Nc2ncncc2-c2ccccc2C(F)(F)F)cc1" and state if its activity change, negative = inhibition is at or above -10%.
0.0

---

# assay summary: Validation screen for small molecules that induce DNA re-replication in SW480 colon adenocarcinoma cells (AID 504364); further: 0% is about no effect
# condition summary: DNA re-replication phenotype (high-content imaging); series mostly up to 46.1 µM
Records with an inconclusive call do not appear. The source made the active and inactive calls. Calls come from the whole dose curve; as a rule, active = well fitted activation curve with a large enough effect; inconclusive = small, poorly fitted or top-dose-only effect; inactive = flat fitted curve, though single readings scatter.
observation type: outcome

molecule=CC(=O)NCCc1ccc(O)c(O)c1 result=inactive
molecule="CC(O)[C@@H](O)[C@H]1CNc2nc(N)[nH]c(=O)c2N1 (stereo partly drawn)" result=inactive
molecule=NCCNC(=O)c1ccc(Cl)cc1 result=inactive

---

# assay summary: qHTS for differential inhibitors of proliferation of Plasmodium falciparum line 7G8 (AID 1815);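 further: parasite growth measured after three days of incubation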
# condition summary: Plasmodium falciparum 7G8 proliferation inhibition; series mostly up to 28.7 µM
Records with an inconclusive call do not appear. The source made the active and inactive calls. Calls come from the whole dose curve; as a rule, active = well fitted curve in the direction sought with a large enough effect; inconclusive = small, poorly fitted or top-dose-only effect, or another doubt; inactive = no such curve, though single readings can be large or run the other way.
Assign a class; possible classes are true (active), false (inactive)

Observe how each entry below is paired with its result.
molecule=C[C@H](Cc1ccccc1)Nc1ncnc2c1ncn2[C@@H]1O[C@H](CO)[C@H](O)[C@H]1O answer_label=false
molecule=COC(=O)c1c(-c2cc(OC)c(OC)c(OC)c2)c2ccc(OCc3ccccn3)cc2c(=O)n1-c1ccc(N)cc1 answer_label=true
molecule=N=C(N)SCCc1cccc(CCSC(=N)N)c1 answer_label=true
molecule="CN1C(=O)CCC1c1cccnc1 (centres undefined)" answer_label=false
molecule=CCCCC#Cc1nc(N)c2ncn([C@@H]3O[C@H](C(=O)NCC)[C@@H](O)[C@H]3O)c2n1 answer_label=true
molecule="CC(C)C1NC(=O)[C@H](CCCCN)NC(=O)[C@@H](Cc2c[nH]c3ccccc23)NC(=O)[C@H](Cc2ccc(O)cc2)NC(=O)[C@H](C)N(C)C(=O)[C@H](Cc2ccccc2)NC1=O (some centres undefined)" answer_label=false

Lab log entry: OC[C@H]1O[C@@H](n2cnc3c(N[C@H]4CC5CCC4C5)ncnc32)[C@H](O)[C@@H]1O (some centres undefined) — outcome as called in the assay?
false

Per the records of this test, what outcome belongs to CC(O)[C@@H](O)[C@H]1CNc2nc(N)[nH]c(=O)c2N1 (some centres undefined) ?
false

Recorded test call requested for "CSc1nc(N)c2ncn([C@@H]3O[C@H](COP(=O)(O)OP(=O)(O)O)[C@H](O)[C@H]3O)c2n1"
false

Query: recorded result category for "NC(=NCCC[C@H](N)C(=O)O)NO" in this test
false

Any idea what this test logged for "NCCCCNS(=O)(=O)c1cccc2c(Cl)cccc12" ?
true

In this assay, the call recorded for "OC[C@H]1O[C@@H](n2cnc3c(NCCc4ccccc4)ncnc32)[C@H](O)[C@H]1O" was what?
false

Assay outcome for CN=C(N)NCCCC(N)C(=O)O (centres undefined) : what was it?
false

Called result for "O=C(O)CC[C@H](NC(=O)c1ccccc1C(=O)O)C(=O)O"
false

---

# test system: Cytochrome P450 1A2 (Homo sapiens)
# assay summary: p450-cyp1a2 (AID 410)
# condition summary: recombinant CYP1A2, luciferin-ME demethylation, luminescence; series mostly up to 57 µM
Results filed as inconclusive are left out. Active and inactive are the calls of the source. Calls follow the shape of the full dose curve.
Give your call using only these classes: True = active, False = inactive

Solved cases (6 shown):
structure_smiles=COCCn1c(=O)c(-c2cc(F)cc(F)c2)nc2cnc(N3CCOCC3)nc21 answer_label=True
structure_smiles=COc1cccc(-c2ccc3ncnc(N(C)Cc4ccco4)c3c2)c1 answer_label=True
structure_smiles=COCC(=O)N1CCC2(CC1)CCN(C(=O)Nc1ccc(OC)cc1)CC2 answer_label=False
structure_smiles=CC(C)NC(=O)N1CC2(CCN(C(=O)c3ccco3)CC2)C1 answer_label=False
structure_smiles=COC(=O)N1CCC[C@@]2(CCN(c3ccccn3)C2)C1 answer_label=True
structure_smiles=NCCn1c(=O)c(CCc2ccccc2)nc2cncnc21 answer_label=True

Dear all, I need the recorded test outcome for "c1csc(CNc2ncncc2-c2ccc3c(c2)OCO3)c1" , thank you.
True

---

Each entry below carries its recorded Potency.
# test system: Glucocorticoid receptor (Homo sapiens)
# assay summary: GR-GFP Redistribution (AID 450); further: potency means the concentration at half of the fitted maximal effect
# condition summary: U2OS GR-GFP nuclear translocation, laser cytometry, 2 h
Calls of active or inactive are those of the source.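 Rule for the calls: active = compounds whose dose series gives a full or clear partial fitted curve of increased nuclear translocation; inconclusive = weak partial curve or effect only at the top dose; inactive = no dose-dependent translocation response.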

Sample answers from the record:
structure_smiles=N#CCCn1c(=O)c(CCc2ccccc2)nc2cnc(OCc3ccccc3)nc21 observation_type=Potency result="> 9.22 µM (inactive)"
structure_smiles=CN(C)c1ncc2nc(-c3ccc(F)cc3)c(=O)n(C)c2n1 observation_type=Potency result="> 9.22 µM (inactive)"
structure_smiles=COc1cccc(-c2cncnc2NC2CCNCC2)c1 observation_type=Potency result="> 46 µM (inactive)"

Fill blank: measured Potency of the compound "FC(F)(F)c1ccccc1-c1cc(NCc2ccccc2)ncn1" is ____.
> 46 µM (inactive)

---

# assay summary: NFAT Signaling Pathway (AID 444);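 further: carbachol stimulus at about its EC50 of 1 µM final; on the % scale 0 is the no-effect control and ±100 the full control effect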
# condition summary: Jurkat NFAT-bla M1, carbachol, beta-lactamase ratio, 5 h; at 7.69 µM (top of the series) unless noted
Inconclusive results are not listed. Activity calls are given as the source filed them. The call rests on the fitted dose curve; in most records, active means well fitted curve in either direction with a large enough effect (not every such curve was filed as active); inconclusive means small, poorly fitted or top-dose-only effect, or another doubt; inactive means flat fitted curve, though single readings scatter.
Outcome field: choose from active, inactive

A selection of reference data follows.
structure_smiles=COc1ncc2nc(-c3cccs3)c(=O)n(CCc3ccccc3)c2n1 answer_label=inactive
structure_smiles=CC(=O)N1CCC2(CC1)CN(C(c1ccccc1)c1ccccc1)C2 answer_label=inactive
structure_smiles=COc1ccc(-c2nc3cnc(N4CCN(C)CC4)nc3n(Cc3ccc(F)cc3)c2=O)cc1 answer_label=active
structure_smiles=COc1ccc(-n2c(=O)c(-c3cccs3)nc3cncnc32)cc1 answer_label=inactive
structure_smiles=CN1CCCC2(CCN(C(=O)c3cnccn3)CC2)C1 answer_label=inactive

Call for entry "CN(C)C(=O)c1ccc(-c2ccc3ncnc(N4CCC(C(=O)O)CC4)c3c2)cc1" :
inactive

Called result for "CC(C)CN(C)c1nc(N)c(C(=O)N=C(N)N)nc1Cl"
inactive

---

# test system: Glucocorticoid receptor (Homo sapiens) (UniProt P04150)
# Sequence (P04150 whole entry, looked up): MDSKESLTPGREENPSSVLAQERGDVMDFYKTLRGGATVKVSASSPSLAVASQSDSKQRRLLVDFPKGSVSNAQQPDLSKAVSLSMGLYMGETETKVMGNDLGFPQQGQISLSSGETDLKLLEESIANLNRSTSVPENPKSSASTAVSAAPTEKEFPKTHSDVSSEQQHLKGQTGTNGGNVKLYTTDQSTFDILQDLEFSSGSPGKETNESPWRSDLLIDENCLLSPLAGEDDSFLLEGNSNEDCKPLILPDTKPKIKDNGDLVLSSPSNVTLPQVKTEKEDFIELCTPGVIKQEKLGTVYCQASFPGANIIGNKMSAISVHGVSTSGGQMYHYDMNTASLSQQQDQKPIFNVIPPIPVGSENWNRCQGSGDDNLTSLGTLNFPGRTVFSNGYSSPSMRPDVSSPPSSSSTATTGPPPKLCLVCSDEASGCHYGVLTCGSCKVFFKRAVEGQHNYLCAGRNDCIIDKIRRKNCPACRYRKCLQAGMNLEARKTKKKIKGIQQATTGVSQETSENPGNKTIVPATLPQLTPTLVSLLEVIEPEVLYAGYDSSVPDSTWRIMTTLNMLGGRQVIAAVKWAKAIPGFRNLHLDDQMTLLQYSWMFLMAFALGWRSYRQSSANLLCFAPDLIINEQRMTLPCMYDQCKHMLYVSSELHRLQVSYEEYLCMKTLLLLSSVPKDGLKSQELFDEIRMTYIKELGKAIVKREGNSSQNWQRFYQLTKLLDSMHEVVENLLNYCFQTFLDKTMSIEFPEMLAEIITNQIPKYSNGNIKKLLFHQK
# assay summary: GR-GFP Redistribution (AID 450); further: potency means the concentration at half of the fitted maximal effect
# condition summary: U2OS GR-GFP nuclear translocation, laser cytometry, 2 h
Active and inactive are the calls of the source.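 The calls were made as follows: active = compounds whose dose series gives a full or clear partial fitted curve of increased nuclear translocation; inconclusive = weak partial curve or effect only at the top dose; inactive = no dose-dependent translocation response.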
Potency listing for selected molecules.

The cases that follow already have their Potency on record.
structure_smiles=COc1ncc2ncc(=O)n(C)c2n1 result="> 9.22 µM (inactive)"
structure_smiles=COc1ccc(CNc2ncnc3ccc(-c4cccnc4)cc23)c(OC)c1 result="> 46 µM (inactive)"
structure_smiles=Cc1noc(C)c1-c1ccc2ncnc(NCc3cccnc3)c2c1 result="> 46 µM (inactive)"
structure_smiles=c1cncc(-c2cncnc2-n2ccnc2)c1 result="> 46 µM (inactive)"
structure_smiles=O=c1c(-c2ccccc2)nc2cnc(N3CCNCC3)nc2n1-c1ccccc1 result="> 9.22 µM (inactive)"
structure_smiles=N#Cc1cccc(-c2nc(N3CCNCC3)c3ccccc3n2)c1 result="> 46 µM (inactive)"
structure_smiles=COc1ncc2nc(-c3cc(F)cc(F)c3)c(=O)n(CCC#N)c2n1 result="> 9.22 µM (inactive)"
structure_smiles=COc1ccc(CNc2ccnc(-c3ccc4c(c3)OCO4)n2)c(OC)c1 result="> 46 µM (inactive)"
structure_smiles=N#Cc1cccc(-c2nc3cnc(N4CCOCC4)nc3n(C[C@H]3CCCO3)c2=O)c1 result="> 9.22 µM (inactive)"
structure_smiles=COc1ccccc1-c1cc(NCc2cccnc2)ncn1 result="> 46 µM (inactive)"

Can you share its Potency? I mean this molecule: "Cc1cnc(CNc2ncncc2-c2ccccc2C(F)(F)F)cn1"
> 46 µM (inactive)

Any idea what its Potency is? The molecule is "Cc1cnc(CNc2ncncc2-c2ccc(C(=O)N(C)C)cc2)cn1"
> 46 µM (inactive)

Look up Potency for this molecule: "CN(C)c1ncc2nc(-c3cccc(C#N)c3)c(=O)n(CCC#N)c2n1"
> 9.22 µM (inactive)

---

# assay summary: qHTS Assay for Lipid Storage Modulators (AID 1519)
# condition summary: Drosophila S3 cells, BODIPY lipid droplet/cell ratio, laser cytometry; measured here: lipid channel max response; cells loaded with oleic acid
Inconclusive results are not listed.
criterion met if max response is below 20%. criterion not met if not; exact matches included in criterion not met.

Below are worked cases with known answers.
structure_smiles=CCNc1ncc2nc(C)c(=O)n(CCC#N)c2n1 answer_label="criterion met"
structure_smiles=CN1CCN(c2ncncc2-c2ccc(C(=O)N(C)C)cc2)CC1 answer_label="criterion met"
structure_smiles=COC(=O)N1CCC2(CC1)CN(c1cccc(-c3ccccc3)c1)C2 answer_label="criterion not met"
structure_smiles=COc1cccc(Nc2ncc3nc(-c4cn(C)c5ccccc45)c(=O)n(CCC#N)c3n2)c1 answer_label="criterion not met"
structure_smiles=NC[C@@H](O)c1ccc(O)c(O)c1 answer_label="criterion met"

Next up:
# strict comparison: is reported max response < 20%? input = "COCCn1c(=O)cnc2cnc(Nc3cccc(OC)c3)nc21"
criterion met
